# growth per entry
# Tested on: MCF7 breast
# protocol_summary: NCI-60 one-dose screen, 48 h (100 = growth as untreated, 0 = no growth, -100 = all killed)
# particulars: 10 µM unless noted
# Procedure: Growth inhibition of the MCF7 human tumor cell line is measured as a screen for anti-cancer activity. Cells are grown in 96 well plates and exposed to the test compound for 48 hours. Compounds are tested at a single concentration, which is 10^-5 M for most compounds. The reported endpoint is percent growth (GI% or GIPRCNT), where numbers from 0 - 100% represent growth inhibition, and numbers from -100% - 0 represent cell death. For example, a value of 40 represents 60% growth inhibition. […]
This is part of a sample that, as a whole, favours compounds with a hit. Of some 83,000 tested, about 20% had one in any assay.
Give the value in % but do not write % after it.

A selection of reference data follows.
- CCCCOc1ccc(/C=N/NC(N)=S)cc1: 61.7
- COc1ccc(NC2=C(Br)C(=O)C(C)=C(C)C2=O)cc1: 63.5
- CNC(=O)c1cc(-n2ccc3cc(NC(=O)c4ccc(N5CCOCC5)c(C(F)(F)F)c4)ccc32)ccn1: 60.6
- c1ccc(CO[C@H]2CO[C@H]3[C@@H]2OC[C@@H]3Oc2ccc(Nc3ncnc4ccsc34)cc2)cc1: 64.9

Now look at this one.
Asked: Endpoint output: growth of "CCCCC[C@H](O)C/C=C1/C(=O)C=C[C@@H]1C/C=C\CCCC(=O)O" . Value?
Given back: 19
